Dear all, I have gathered published Kd values for Somatostatin receptor type 2 (Rattus norvegicus); the list follows.

{"columns": ["Smiles Text", "Kd"],
 "data": [
  ["COc1cccc2c1C[C@H]1C[C@@H](C(=O)N3CCN(c4ccc(C(C)=O)cc4)CC3)CN(C)[C@@H]1C2", "8.71 µM"],
  ["COc1cccc2c1C[C@H]1C[C@@H](C(=O)N3CCN(c4ccc5nonc5c4)CC3)CN(C)[C@@H]1C2", "3.47 µM"],
  ["CN1C[C@H](C(=O)N2CCN(c3ccc([N+](=O)[O-])cc3)CC2)C[C@@H]2Cc3c(O)cccc3C[C@H]21", "7.76 µM"],
  ["CN(CCC(=O)N1CCN(c2ccc([N+](=O)[O-])cc2)CC1)CCC1c2ccccc2Oc2ccccc21", "6.76 µM"],
  ["COc1cccc2c1C[C@H]1C[C@@H](C(=O)N3CCN(c4ccc5nccn5n4)CC3)CN(C)[C@@H]1C2", "20.9 µM"],
  ["COc1cccc2c1C[C@H]1C[C@@H](C(=O)N3CCN(c4ncccn4)CC3)CN(C)[C@@H]1C2", "27.5 µM"],
  ["COc1cccc2c1C[C@H]1C[C@@H](C(=O)N3CCN(c4ccc5nsnc5c4)CC3)CN(C)[C@@H]1C2", "4.27 µM"],
  ["COc1cccc2c1C[C@H]1C[C@@H](C(=O)N3CCN(c4cc(C)nc5ccccc45)CC3)CN(C)[C@@H]1C2", "5.25 µM"],
  ["CN1C[C@H](C(=O)N2CCN(c3ccccn3)CC2)C[C@@H]2Cc3c(cccc3OS(=O)(=O)C(F)(F)F)C[C@H]21", "11 µM"],
  ["COc1cccc2c1C[C@H]1C[C@@H](C(=O)N3CCN(c4ccc5nsnc5n4)CC3)CN(C)[C@@H]1C2", "5.75 µM"],
  ["COc1cccc2c1C[C@H]1C[C@@H](C(=O)N3CCN(c4ccccc4[N+](=O)[O-])CC3)CN(C)[C@@H]1C2", "11 µM"],
  ["COc1cccc2c1C[C@H]1C[C@@H](C(=O)N3CCN(c4cccc(OCc5ccccc5)n4)CC3)CN(C)[C@@H]1C2", "6.61 µM"],
  ["COc1cccc2c1C[C@H]1C[C@@H](C(=O)N3CCN(c4ccc5ccccc5n4)CC3)CN(C)[C@@H]1C2", "2.09 µM"],
  ["COc1cccc2c1C[C@H]1C[C@@H](C(=O)N3CCN(c4cccc5ccc(C#N)cc45)CC3)CN(C)[C@@H]1C2", "5.25 µM"],
  ["COc1cccc2c1C[C@H]1C[C@@H](C(=O)N3CCN(c4ccc(C(N)=O)cc4)CC3)CN(C)[C@@H]1C2", "16.6 µM"],
  ["CN(CCC(=O)N1CCN(c2ccc([N+](=O)[O-])cc2)CC1)CCC1c2ccccc2CCc2ccccc21", "3.47 µM"],
  ["CN(CCC(=O)N1CCN(c2ccc(F)c(F)c2)CC1)CCC1c2ccccc2Oc2ccccc21", "6.46 µM"],
  ["CN1C[C@H](C(=O)N2CCN(c3ccc([N+](=O)[O-])cc3)CC2)C[C@@H]2Cc3c(cccc3OC(=O)C(C)(C)C)C[C@H]21", "16.6 µM"],
  ["CN1C[C@H](C(=O)N2CCN(c3ccc([N+](=O)[O-])cc3)CC2)C[C@@H]2Cc3c(cccc3OS(=O)(=O)C(F)(F)F)C[C@H]21", "3.55 µM"],
  ["COc1cccc2c1C[C@H]1C[C@@H](C(=O)N3CCN(c4ccc5nccnc5n4)CC3)CN(C)[C@@H]1C2", "14.1 µM"],
  ["Cc1nc2cc(C[C@H](C)CN3C[C@@H]4CCCC[C@@H]4[C@H](C(=O)N4CCN(c5ccc(F)c(F)c5)CC4)C3)ccc2o1", "0.229 µM"],
  ["COc1cccc2c1C[C@H]1C[C@@H](C(=O)N3CCN(c4cc5ccccc5cn4)CC3)CN(C)[C@@H]1C2", "5.5 µM"],
  ["COc1cccc2c1C[C@H]1C[C@@H](C(=O)N3CCN(c4ccc(C#N)cc4)CC3)CN(C)[C@@H]1C2", "10 µM"],
  ["COc1cccc2c1C[C@H]1C[C@@H](C(=O)N3CCN(c4ncccc4OS(=O)(=O)C(F)(F)F)CC3)CN(C)[C@@H]1C2", "10.5 µM"],
  ["CN(CCC(=O)N1CCN(c2ccc(F)c(F)c2)CC1)CCC1c2ccccc2-c2ccccc21.Cl", "19.5 µM"],
  ["COc1cccc2c1C[C@H]1C[C@@H](C(=O)N3CCN(c4ccccc4C#N)CC3)CN(C)[C@@H]1C2", "7.41 µM"],
  ["COc1cccc2c1C[C@H]1C[C@@H](C(=O)N3CCN(c4cccc([N+](=O)[O-])c4)CC3)CN(C)[C@@H]1C2", "6.76 µM"],
  ["COc1cccc2c1C[C@H]1C[C@@H](C(=O)N3CCN(c4ccc([N+](=O)[O-])cc4)CC3)CN(C)[C@@H]1C2", "7.76 µM"],
  ["COc1ccc(Cl)c2c1C[C@H]1C[C@@H](C(=O)N3CCN(c4ccc([N+](=O)[O-])cc4)CC3)CN(C)[C@@H]1C2", "13.8 µM"],
  ["CN(CCC(=O)N1CCN(c2ccc([N+](=O)[O-])cc2)CC1)CCc1cccc2ccccc12", "8.71 µM"]
]}

* * *

The following compounds were reported with Kd values on Somatostatin receptor type 2 (Rattus norvegicus) in different studies.
Sequence (P30680 whole entry): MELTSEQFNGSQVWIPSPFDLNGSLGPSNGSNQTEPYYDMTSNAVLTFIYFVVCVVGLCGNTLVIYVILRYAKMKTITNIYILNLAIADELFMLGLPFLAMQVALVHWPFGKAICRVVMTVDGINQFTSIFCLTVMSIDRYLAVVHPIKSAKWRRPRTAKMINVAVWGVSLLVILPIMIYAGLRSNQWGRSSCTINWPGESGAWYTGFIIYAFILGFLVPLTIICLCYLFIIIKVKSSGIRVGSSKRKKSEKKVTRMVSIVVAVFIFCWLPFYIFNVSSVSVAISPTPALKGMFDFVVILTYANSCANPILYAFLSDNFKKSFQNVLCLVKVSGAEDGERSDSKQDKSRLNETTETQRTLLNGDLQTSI

{"columns": ["Smiles Text", "Measured Target", "Kd (µM)"],
 "data": [
  ["C=CCN(CCC(=O)N1CCN(c2ccc([N+](=O)[O-])cc2)CC1)CCC1c2ccccc2-c2ccccc21", "Somatostatin receptor type 2 (Rattus norvegicus)", 4.07],
  ["CN1C[C@H](C(=O)N2CCN(c3ccc([N+](=O)[O-])cc3)CC2)C[C@@H]2Cc3c(cccc3OC(=O)OC(C)(C)C)C[C@H]21", "Somatostatin receptor type 2 (Rattus norvegicus)", 15.5],
  ["COc1cccc2c1C[C@H]1C[C@@H](C(=O)N3CCN(c4cccc(=O)n4C)CC3)CN(C)[C@@H]1C2", "Somatostatin receptor type 2 (Rattus norvegicus)", 11],
  ["CN1C[C@H](C(=O)N2CCN(c3ccc4nsnc4n3)CC2)C[C@@H]2Cc3c(cccc3OCc3ccccc3)C[C@H]21", "Somatostatin receptor type 2 (Rattus norvegicus)", 4.79],
  ["COc1cccc2c1C[C@H]1C[C@@H](C(=O)N3CCN(c4ccc(S(C)(=O)=O)cc4)CC3)CN(C)[C@@H]1C2", "Somatostatin receptor type 2 (Rattus norvegicus)", 8.71],
  ["COc1cccc2c1C[C@H]1C[C@@H](C(=O)N3CCc4c([nH]c5ccccc45)C3)CN(C)[C@@H]1C2", "Somatostatin receptor type 2 (Rattus norvegicus)", 6.17],
  ["COc1cccc2c1C[C@H]1C[C@@H](C(=O)N3CC=C(c4ccc(Cl)cc4)CC3)CN(C)[C@@H]1C2", "Somatostatin receptor type 2 (Rattus norvegicus)", 2.51],
  ["COc1cccc2c1C[C@H]1C[C@@H](C(=O)N3CCN(c4ccc(F)cc4)CC3)CN(C)[C@@H]1C2", "Somatostatin receptor type 2 (Rattus norvegicus)", 26.3],
  ["COc1cccc2c1C[C@H]1C[C@@H](C(=O)N3CCCN(c4ccc([N+](=O)[O-])cc4)CC3)CN(C)[C@@H]1C2", "Somatostatin receptor type 2 (Rattus norvegicus)", 22.4],
  ["COc1cccc2c1C[C@H]1C[C@@H](C(=O)N3CCN(Cc4ccccc4)CC3)CN(C)[C@@H]1C2", "Somatostatin receptor type 2 (Rattus norvegicus)", 9.12]
]}
